// provenance: patent US9149038B2

Would you kindly list pest or weed control at 35 g/ha for each of these compounds?
# System: Wheat and Barley and weed species
# assay_text: Post-Emergent Test III: postemergent herbicidal activity in wheat and barley, visual rating after 21 d and probit GR20/GR50/GR80/GR90 (Tables 9-13)
# Assay type: in vivo
# conditions: post-emergence, 504 h; SETVI green foxtail (Setaria viridis); 35 g ai/ha; read-out: Visual Growth Reduction (%) 21 Days After Application SETVI

See these solved cases before continuing.
[[record]]
compound = "Nc1cc(-c2cc3c(cc2F)OC(F)(F)O3)nc(C(=O)O)c1Cl [Compound 42]"
observed_value = "75 to 84%"

[[record]]
compound = "Nc1c(F)c(-c2cc3c(cc2F)OC(F)(F)O3)nc(C(=O)O)c1Cl [Compound 13]"
observed_value = "75 to 84%"


Quick one: give me pest or weed control at 35 g/ha for each item below, same order please.
1. COC(=O)c1nc(-c2c(F)cc3c(c2F)OC(F)(F)O3)cc(N)c1Cl [Compound 46]
2. Nc1c(F)c(-c2ccc3c(c2F)OC(F)(F)O3)nc(C(=O)O)c1Cl [Compound 11]
3. Nc1c(F)c(-c2ccc3c(c2)OC(F)(F)O3)nc(C(=O)O)c1Cl [Compound 7]
4. COC(=O)c1nc(-c2ccc3c(c2F)OC(F)(F)O3)c(F)c(N)c1Cl [Compound 10]
5. COC(=O)c1nc(-c2cc3c(cc2F)OC(F)(F)O3)c(F)c(N)c1Cl [Compound 9]
6. COC(=O)c1nc(-c2ccc3c(c2)OC(C)(C)O3)c(F)c(N)c1Cl [Compound 8]

Return:
0 to 29%
75 to 84%
75 to 84%
60 to 74%
75 to 84%
75 to 84%

---

# System: Key Broadleaf Weed and Crop Species
# assay_text: Post-Emergent Test II: postemergent herbicidal activity, visual rating after 14 d (Table 7)
# Type: in vivo
# conditions: post-emergence, 336 h, lambsquarters (Chenopodium album), 140 g ai/ha, read-out: Visual Growth Reduction (%) 14 Days After Application CHEAL
Would you kindly list pest or weed control at 140 g/ha for each of these compounds?

See these solved cases before continuing.
[[record]]
compound = "COC(=O)c1nc(-c2cc3c(cc2F)OC(F)(F)O3)c(F)c(N)c1OC [Compound 22]"
assay_metric = "pest or weed control at 140 g/ha"
observed_value = "0 to 29%"

[[record]]
compound = "COC(=O)c1nc(-c2ccc3c(c2)OC(C)(C)O3)c(F)c(N)c1Cl [Compound 8]"
assay_metric = "pest or weed control at 140 g/ha"
observed_value = "85 to 94%"

[[record]]
compound = "Nc1c(F)c(-c2ccc(F)c3c2OC(F)(F)O3)nc(C(=O)O)c1Cl [Compound 77]"
assay_metric = "pest or weed control at 140 g/ha"
observed_value = "95 to 100%"

[[record]]
compound = "COC(=O)c1nc(-c2cc(OC)c3c(c2)OCO3)c(F)c(N)c1Cl [Compound 14]"
assay_metric = "pest or weed control at 140 g/ha"
observed_value = "75 to 84%"

[[record]]
compound = "COC(=O)c1nc(-c2ccc3c(c2)OC(C)O3)c(F)c(N)c1Cl (stereo not drawn) [Compound 20]"
assay_metric = "pest or weed control at 140 g/ha"
observed_value = "75 to 84%"


Quick one: give me pest or weed control at 140 g/ha for each item below, same order please.
1. COC(=O)c1nc(-c2ccc3c(c2)OC(F)(F)O3)c(Cl)c(N)c1Cl [Compound 1]
2. Nc1nc(-c2ccc3c(c2F)OC(F)(F)O3)nc(C(=O)O)c1Cl [Compound 59]
3. COC(=O)c1nc(-c2ccc3c(c2)OC(C)(C)O3)nc(N)c1Cl [Compound 55]

Return:
1: 0 to 29%; 2: 85 to 94%; 3: 75 to 84%

Form field pest or weed control at 140 g/ha for item COC(=O)c1nc(-c2cc3c(cc2F)OC(F)(F)O3)nc(N)c1Cl [Compound 56] on Key Broadleaf Weed and Crop Species: 0 to 29%

---

# Tested on: Wheat and Barley and weed species
# assay_text: Post-Emergent Test III: postemergent herbicidal activity in wheat and barley, visual rating after 21 d and probit GR20/GR50/GR80/GR90 (Tables 9-13)
# Type: in vivo
# conditions: APESV bentgrass (Apera spica-venti); growth reduction of 50%; probit analysis
assay_metric: GR50 APESV (g ai/ha)
Numbers only, in g ai/ha.

See these solved cases before continuing.
[[record]]
substance_smiles = "COC(=O)c1nc(-c2c(F)cc3c(c2F)OC(F)(F)O3)cc(N)c1Cl"
reading_unit = "g ai/ha"
observed_value = 88

[[record]]
substance_smiles = "Nc1cc(-c2cc3c(cc2F)OC(F)(F)O3)nc(C(=O)O)c1Cl"
reading_unit = "g ai/ha"
observed_value = 22

[[record]]
substance_smiles = "Nc1c(F)c(-c2ccc3c(c2)OC(F)(F)O3)nc(C(=O)O)c1Cl"
reading_unit = "g ai/ha"
observed_value = 30

[[record]]
substance_smiles = "COC(=O)c1nc(-c2ccc3c(c2F)OC(F)(F)O3)c(F)c(N)c1Cl"
reading_unit = "g ai/ha"
observed_value = 65

[[record]]
substance_smiles = "Nc1c(F)c(-c2ccc3c(c2F)OC(F)(F)O3)nc(C(=O)O)c1Cl"
reading_unit = "g ai/ha"
observed_value = 25

[[record]]
substance_smiles = "COC(=O)c1nc(-c2ccc3c(c2)OC(C)(C)O3)c(F)c(N)c1Cl"
reading_unit = "g ai/ha"
observed_value = 22


Let us move to another entry and its GR50 APESV.
Lab note: measured GR50 APESV of COC(=O)c1nc(-c2cc3c(cc2F)OC(F)(F)O3)c(F)c(N)c1Cl was 30

---

# Tested on: Wheat and Barley and weed species
# assay_text: Post-Emergent Test III: postemergent herbicidal activity in wheat and barley, visual rating after 21 d and probit GR20/GR50/GR80/GR90 (Tables 9-13)
# Type: in vivo
# conditions: post-emergence, 504 h; LOLSS ryegrass; 35 g ai/ha; read-out: Visual Growth Reduction (%) 21 Days After Application LOLSS
# Experimental: Herbicidal evaluations were made visually on a scale of 0 to 100 where 0 represents no activity and 100 represents complete plant death. […] A weighed amount, determined by the highest rate to be tested, of each test compound was placed in a 25 mL glass vial and was dissolved in 4 mL of a 97:3 v/v mixture of acetone and DMSO to obtain concentrated stock solutions. […]
Would you kindly list pest or weed control at 35 g/ha for each of these compounds?

See these solved cases before continuing.
[[record]]
substance_smiles = "COC(=O)c1nc(-c2cc3c(cc2F)OC(F)(F)O3)c(F)c(N)c1Cl"
observed_value = "0 to 29%"

[[record]]
substance_smiles = "COC(=O)c1nc(-c2c(F)cc3c(c2F)OC(F)(F)O3)cc(N)c1Cl"
observed_value = "0 to 29%"

[[record]]
substance_smiles = "Nc1c(F)c(-c2ccc3c(c2)OC(F)(F)O3)nc(C(=O)O)c1Cl"
observed_value = "45 to 59%"


Quick one: give me pest or weed control at 35 g/ha for each item below, same order please.
1. Nc1cc(-c2cc3c(cc2F)OC(F)(F)O3)nc(C(=O)O)c1Cl
2. Nc1c(F)c(-c2ccc3c(c2F)OC(F)(F)O3)nc(C(=O)O)c1Cl
3. Nc1c(F)c(-c2cc3c(cc2F)OC(F)(F)O3)nc(C(=O)O)c1Cl

Return:
45 to 59%
60 to 74%
0 to 29%

Quick one: give me pest or weed control at 35 g/ha for each item below, same order please.
1. COC(=O)c1nc(-c2cc3c(cc2F)OC(F)(F)O3)cc(N)c1Cl
2. COC(=O)c1nc(-c2ccc3c(c2)OC(C)(C)O3)c(F)c(N)c1Cl
3. COC(=O)c1nc(-c2ccc3c(c2F)OC(F)(F)O3)c(F)c(N)c1Cl

Return:
30 to 44%
0 to 29%
0 to 29%

---

# System: Key Broadleaf Weed and Crop Species
# assay_text: Post-Emergent Test II: postemergent herbicidal activity, visual rating after 14 d (Table 7)
# Assay type: in vivo
# conditions: post-emergence, 336 h, wild poinsettia (Euphorbia heterophylla), 140 g ai/ha, read-out: Visual Growth Reduction (%) 14 Days After Application EPHHL
Would you kindly list pest or weed control at 140 g/ha for each of these compounds?

See these solved cases before continuing.
[[record]]
substance_smiles = "COC(=O)c1nc(-c2cccc3c2OC(F)(F)O3)c(F)c(N)c1Cl"
observed_value = "0 to 29%"

[[record]]
substance_smiles = "Nc1c(F)c(-c2cccc3c2OCO3)nc(C(=O)O)c1Cl"
observed_value = "0 to 29%"

[[record]]
substance_smiles = "C=Cc1c(C(=O)OC)nc(-c2cc3c(cc2F)OC(F)(F)O3)c(F)c1N"
observed_value = "0 to 29%"

[[record]]
substance_smiles = "Nc1cc(-c2cc3c(cc2F)OC(F)(F)O3)nc(C(=O)O)c1Cl"
observed_value = "95 to 100%"

[[record]]
substance_smiles = "Nc1c(F)c(-c2ccc(F)c3c2OC(F)(F)O3)nc(C(=O)O)c1Cl"
observed_value = "0 to 29%"

[[record]]
substance_smiles = "COC(=O)c1nc(-c2ccc3c(c2F)OC(F)(F)O3)c(F)c(N)c1Cl"
observed_value = "95 to 100%"


Quick one: give me pest or weed control at 140 g/ha for each item below, same order please.
1. Cc1c(-c2ccc3c(c2)OC(F)(F)O3)nc(C(=O)O)c(Cl)c1N
2. Nc1c(F)c(-c2ccc3c(c2)OC(F)(F)O3)nc(C(=O)O)c1Cl
3. Nc1c(Cl)c(C(=O)O)nc(-c2cc3c(cc2F)OC(F)(F)O3)c1Cl

Return:
1. 0 to 29%
2. 95 to 100%
3. 0 to 29%

Quick one: give me pest or weed control at 140 g/ha for each item below, same order please.
1. COC(=O)c1nc(-c2ccc3c(c2)OC(C)(C)O3)nc(N)c1Cl
2. COC(=O)c1nc(-c2cc3c(cc2F)OCO3)nc(N)c1OC
3. COC(=O)c1nc(-c2cc(OC)c3c(c2)OCO3)c(F)c(N)c1Cl
4. Nc1c(Cl)c(C(=O)O)nc(-c2ccc3c(c2F)OC(F)(F)O3)c1Cl

Return:
["95 to 100%", "75 to 84%", "0 to 29%", "0 to 29%"]
